Molecular target: rat FAAH (Rattus norvegicus)
Construct: made in house; host or cells: E. coli
Sequence (P97612 1-579): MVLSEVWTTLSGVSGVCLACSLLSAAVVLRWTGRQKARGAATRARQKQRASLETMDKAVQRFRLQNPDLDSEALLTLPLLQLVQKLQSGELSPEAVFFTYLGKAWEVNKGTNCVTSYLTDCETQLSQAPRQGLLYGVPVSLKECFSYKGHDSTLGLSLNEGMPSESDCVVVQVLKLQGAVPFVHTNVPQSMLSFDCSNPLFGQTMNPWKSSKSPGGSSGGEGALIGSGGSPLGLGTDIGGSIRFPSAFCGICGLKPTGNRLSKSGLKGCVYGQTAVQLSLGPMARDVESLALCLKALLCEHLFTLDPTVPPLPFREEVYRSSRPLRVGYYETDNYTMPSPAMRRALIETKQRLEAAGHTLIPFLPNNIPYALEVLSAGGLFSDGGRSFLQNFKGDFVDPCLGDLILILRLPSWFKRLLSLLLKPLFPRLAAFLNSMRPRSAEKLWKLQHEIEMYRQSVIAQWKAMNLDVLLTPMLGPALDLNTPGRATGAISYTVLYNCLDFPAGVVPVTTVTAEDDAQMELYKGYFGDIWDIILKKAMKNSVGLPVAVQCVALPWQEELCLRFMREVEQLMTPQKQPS
Assay: FAAH assay, rat FAAH enzyme inhibition (kinact/Ki)
Assay type: biochemical
Settings: oleamide substrate 50 μM, 30° C., read-out: rFAAH kinact/Ki
Decision: kinact/KI compared against 2000 M⁻¹ s⁻¹; not below it gives 1, below it gives -1.

> print(dat)
                                    molecule  class.label
 1  O=C(Nc1cccnn1)N1CCC2(CC1)CC(c1cccc(Oc3ccc(Br)cn3)c1)C2           -1
 2  Cc1noc(NC(=O)N2CCC3(CC2)CC(c2noc(-c4ccc(OC(F)(F)F)cc4)n2)C3)c1C           -1
 3  Cn1nnnc1NC(=O)N1CCC2(CC1)CC(c1cccc(C(F)(F)F)c1F)C2            1
 4  Cn1nnnc1NC(=O)N1CCC2(CC1)CC(F)(c1cccc(OC(F)(F)F)c1)C2           -1
 5  Cc1noc(NC(=O)N2CCC3(CC(c4ccc(F)c(Cl)c4)C3)C(C)C2)c1C (centres unmarked)           -1
 6  CCc1cccc(C2CC3(CCN(C(=O)Nc4onc(C)c4C)CC3)C2)c1           -1
 7  Cc1noc(NC(=O)N2CCC3(CC2)CC(O)(c2ccc(F)c(Cl)c2)C3)c1C           -1
 8  Cc1noc(NC(=O)N2CCC3(CC2)CC(c2ccc(Cl)c(F)c2)C3)c1C            1
 9  Cn1nnnc1NC(=O)N1CCC2(CC1)CC(c1cccc(OC(F)(F)F)c1)C2            1
10  Cc1noc(NC(=O)N2CCC3(CC2)CC(c2cccc(C(F)(F)F)c2)C3)c1C            1
11  Cc1noc(NC(=O)N2CCC3(CC2)CC(c2cccc(Oc4ccc(Br)cn4)c2)C3)c1C            1
12  O=C(Nc1cccnn1)N1CCC2(CC1)CC(c1cccc(Oc3ncc(Br)cn3)c1)C2           -1
13  Cc1noc(NC(=O)N2CCC3(CC2)CC(c2ccc(OCc4ccc(F)cc4)cc2)C3)c1C           -1
14  Cc1cccc(C2CC3(CCN(C(=O)Nc4nnc(-c5ccccc5)nn4)CC3)C2)c1            1
15  Cc1cc(C2CC3(CCN(C(=O)Nc4onc(C)c4C)CC3)C2)ccc1F            1
16  Cc1nnc(NC(=O)N2CCC3(CC2)CC(c2cccc(OC(F)(F)F)c2)C3)o1            1
